procedureText: Compound was evaluated for its ability to inhibit the NNRTI HIV-1 enzyme by 50% using enzyme assay
measurementLabel: IC50 (nM)

smiles: O=C1Nc2ccc(Cl)cc2[C@@](C#CC2CC2)(C(F)(F)F)N1
numericValue: 31

meta.source: BindingDB's records for doi:10.1016/s0960-894x(00)00662-4
